- Tested on: HEK-293T
- EXPERIMENT SUMMARY: Cytotoxicity against HEK293T cells assessed as reduction in cell viability measured after 72 hrs by CytoTox 96 nonradioactive cytotoxicity assay
- Assay type: cell-based
- COND: human
Each entry below carries its recorded CC50.
PARAMETER MEASURED: CC50

# COMPOUND, PARAMETER MEASURED, RESULT
data = [
    ("CCCC[C@H]1CC[C@H](OC(=O)N[C@@H](CC(C)C)C(=O)N[C@H](C=O)C[C@@H]2CCNC2=O)CC1", "CC50", "55 µM"),
    ("CC(C)C[C@H](NC(=O)OC(Cc1ccccc1)C1CCC(F)(F)CC1)C(=O)N[C@H](C=O)C[C@@H]1CCNC1=O (stereo not given in full)", "CC50", "> 100 µM"),
    ("CCCC(OC(=O)N[C@@H](CC(C)C)C(=O)N[C@@H](C[C@@H]1CCNC1=O)C(O)S(=O)(=O)O)c1ccccc1 (stereo not given in full)", "CC50", "> 100 µM"),
    ("CC(C)C[C@H](NC(=O)OCc1c(F)c(F)c(F)c(F)c1F)C(=O)N[C@H](C=O)C[C@@H]1CCNC1=O", "CC50", "> 100 µM"),
    ("CC(C)C[C@H](NC(=O)OC(Cc1ccccc1)C1CCC(F)(F)CC1)C(=O)N[C@@H](C[C@@H]1CCNC1=O)C(O)S(=O)(=O)O (stereo not given in full)", "CC50", "> 100 µM"),
    ("CC(C)C[C@H](NC(=O)OC1CCC(C)(C)CC1)C(=O)N[C@@H](C[C@@H]1CCNC1=O)C(O)S(=O)(=O)O (stereo not given in full)", "CC50", "> 100 µM"),
    ("CCCC[C@H]1CC[C@H](OC(=O)N[C@@H](CC(C)C)C(=O)N[C@@H](C[C@@H]2CCNC2=O)C(O)S(=O)(=O)O)CC1 (stereo not given in full)", "CC50", "58 µM"),
    ("CC(C)C[C@H](NC(=O)OCc1c(F)c(F)c(F)c(F)c1F)C(=O)N[C@@H](C[C@@H]1CCNC1=O)C(O)S(=O)(=O)O (stereo not given in full)", "CC50", "> 100 µM"),
    ("CC(C)C[C@H](NC(=O)OCc1cccc(F)c1)C(=O)N[C@H](C=O)C[C@@H]1CCNC1=O", "CC50", "> 100 µM"),
    ("CC(C)C[C@H](NC(=O)OCc1cccc(F)c1)C(=O)N[C@@H](C[C@@H]1CCNC1=O)C(O)S(=O)(=O)O (stereo not given in full)", "CC50", "> 100 µM"),
    ("CCC[C@H]1CC[C@H](COC(=O)N[C@@H](CC(C)C)C(=O)N[C@@H](C[C@@H]2CCNC2=O)C(O)S(=O)(=O)O)CC1 (stereo not given in full)", "CC50", "44 µM"),
    ("CC(C)C[C@H](NC(=O)OC1CCC(C)(C)CC1)C(=O)N[C@H](C=O)C[C@@H]1CCNC1=O", "CC50", "> 100 µM"),
    ("CC(C)C[C@H](NC(=O)OC(c1ccccc1)C1CCC(F)(F)CC1)C(=O)N[C@@H](C[C@@H]1CCNC1=O)C(O)S(=O)(=O)O (stereo not given in full)", "CC50", "> 100 µM"),
    ("CCCC(OC(=O)N[C@@H](CC(C)C)C(=O)N[C@H](C=O)C[C@@H]1CCNC1=O)c1ccccc1 (stereo not given in full)", "CC50", "> 100 µM"),
    ("CC(C)C[C@H](NC(=O)OC(c1ccccc1)C1CCC(F)(F)CC1)C(=O)N[C@H](C=O)C[C@@H]1CCNC1=O (stereo not given in full)", "CC50", "> 100 µM"),
]
